Study target: SHP2 (Homo sapiens (Human), UniProt Q06124)
Protocol description: SHP2 allosteric inhibition experiment (DiFMUP fluorescence)
Measurement parameters: 0.5 nM SHP2 activated with 0.5 μM peptide IRS1_pY1172(dPEG8)pY1222; substrate DiFMUP; 25° C.; read-out: IC50 values of compounds inhibiting SHP2
Measured endpoint: IC50 (nM)

| Compound | IC50 / nM |
| --- | --- |
| C[C@@H]1OCC2(CCN(c3cnc(Sc4cccc(NC(=O)c5c(O)nc6n(c5=O)CCCC6)c4Cl)cn3)CC2)[C@@H]1N | 0.31 |
| CCn1cc(-c2cccc(Sc3cnc(N4CCC5(CC4)CO[C@@H](C)[C@H]5N)cn3)c2Cl)cn1 | 4.4 |
| C[C@@H]1OCC2(CCN(c3cnc(Sc4cccc(-c5nc(C(=O)O)co5)c4Cl)cn3)CC2)[C@@H]1N | 1.27 |
| C[C@@H]1OCC2(CCN(c3cnc(Sc4cccc(Nc5cnccn5)c4Cl)cn3)CC2)[C@@H]1N | 2.71 |
| C[C@@H]1OCC2(CCN(c3cnc(Sc4cccc(-c5nc(C(N)=O)co5)c4Cl)cn3)CC2)[C@@H]1N | 1.95 |

[P] C[C@@H]1OCC2(CCN(c3cnc(Sc4cccc(NC(=O)c5ncccn5)c4Cl)cn3)CC2)[C@@H]1N
[Q] C[C@@H]1OCC2(CCN(c3cnc(Sc4cccc(N5C(=O)C6CC6C5=O)c4Cl)cn3)CC2)[C@@H]1N (stereo partly shown)
INPUT: Form: Entry with minimum IC50 (choose one): P / Q Answer by quoting the chosen item's label.
OUTPUT: P
